study.system: Pantothenate synthetase (Mycobacterium tuberculosis (strain ATCC 25618 / H37Rv))
assay.summary: Coupled enzyme confirmation of inhibitors against recombinant Mtb PanC (AID 375);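 note: 0% = full reaction with vehicle and 100% = no enzyme background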
test.conditions: coupled enzyme assay; at 10 µM, active compounds read high
endpoint.name: inhibition (%)

molecule	measure.unit	observed.result
c1ccc2oc(SCc3cn4ccccc4n3)nc2c1	%	0
O=c1[nH]c(=O)n(-c2cccc3ccccc23)c(O)c1C=NCCCn1ccnc1	%	0
C[C@]12CCC(=O)C=C1CC[C@@H]1[C@@H]2CC[C@@]2(C)[C@H]1CC[C@]2(O)C(=O)CO	%	0
O=C(C1CCN(S(=O)(=O)N2CCC3(CC2)OCCO3)CC1)N1CCOCC1	%	0
COc1ccccc1C1C(C#N)=C(N)Oc2cc(C)n(Cc3ccccn3)c(=O)c21 (stereo unspecified)	%	1
O=C(Nc1ccc(Br)cc1F)c1sccc1-n1cccc1	%	4
CCOC(=O)C(NC(=O)c1ccccc1)(Nc1cc(C)on1)C(F)(F)F (stereo unspecified)	%	0
Cc1cc(C)nc(N2CCC(C(=O)NCc3cccc(C(F)(F)F)c3)CC2)n1	%	3
Nc1nc(NC(=O)c2cccs2)nn1-c1ccccc1	%	1
COCCn1c(SCC(=O)Nc2ccc3c(c2)OCCO3)nc2c(c1=O)SC(C)C2 (stereo unspecified)	%	3
Nc1cc(=O)[nH]c(SCC(=O)Nc2ccc(Br)cc2)n1	%	2
